This collection of values is drawn from PubChem BioAssay (NCI).

Measured TGI, listed per entry.
tested on: CAKI-1 renal; assay: NCI tumour cell line growth inhibition, 48 h

Recorded TGI, per entry:
stdin: Fill in the blank: the reported TGI of CCOc1ccc2nc(NC(=O)C(=O)C(C(=O)c3ccccc3-c3ccccc3)C3OC(=O)c4ccccc43)sc2c1 (configuration not stated) is ____.
stdout: 53.2 µM

stdin: For "CCSc1nnc2c(-c3ccccc3)n[nH]c2n1" , what is its reported TGI?
stdout: > 100 µM

stdin: So what's the measured TGI for this one? "O=C1c2c(F)c(F)c(F)c(F)c2SC2=NCCN12"
stdout: 6.67 µM

stdin: Would you kindly share the measured TGI for "C[n+]1c(/C=C\C=C\N2CCCCC2)sc2ccccc21" ?
stdout: 28.9 µM

***
stdin: State the recorded TGI for this entry: "COc1cc(CCc2cccnc2)cc(OC)c1OC"
stdout: > 100 µM

stdin: # get_value(readout='TGI', item= COC(=O)C(=O)C(C(=O)Nc1cccc(C)c1C)C1Sc2ccccc2NC1=O (configuration not stated) )
stdout: > 25 µM

stdin: Any idea what TGI was measured for Nc1ncnc2c1ncn2C1OC(COP(=O)(O)CP(=O)(O)O)C(O)C1O (configuration not stated) ?
stdout: > 100 µM

stdin: Recorded TGI for "O=C(/C=C/c1ccc(B(O)O)cc1)/C=C/c1ccc(B(O)O)cc1" , please?
stdout: 19.2 µM

stdin: Which TGI is listed for "CCOC(=O)c1cn(-c2ccccc2)c(=S)n2c1nc1ccccc12" ?
stdout: > 100 µM

stdin: I'd like to know its TGI. The compound in question is Cc1ccc(C)c(NC(=O)C(=O)CC(=O)C2CCOC2=O)c1 (configuration not stated)
stdout: > 100 µM

stdin: Param item = "CNCc1cccc2c1OCCOCCN(C)C(=O)CN(C)S(=O)(=O)c1ccc(cc1)-c1cnc(N)c(n1)C(=O)N2" ; retrieve measured TGI.
stdout: > 100 µM

stdin: Recorded TGI for "C=C(C)[C@@H]1CC[C@]2(C(=O)O)CC[C@]3(C)[C@H](CC[C@@H]4[C@@]5(C)CC(=O)C(C)(C)[C@@H]5CC[C@]43C)[C@@H]12" , please?
stdout: > 25 µM

###

test system: EKVX NSCLC; assay: NCI tumour cell line growth inhibition, 48 h; in the data active = GI50 below about 0.43 µM; inactive = the rest
// classify into active, inactive

stdin: Returns: the outcome recorded for "CC(C)(C)OC(=O)NCCNC1=CC(=O)c2nc3ccccc3c3ccnc1c23" in this assay.
stdout: inactive

stdin: Hi, sorry to bother you, what did the test record for "C=C(Cn1c(=O)c2ccccc2c2ccccc21)c1ccc(C(=O)Nc2ccccc2N)cc1" ?
stdout: inactive

stdin: Query: recorded result category for "O=C(Nc1ccc(Cl)cc1Cl)c1ccc(NC2=C(Cl)C(=O)N(Cc3ccccc3)C2=O)cc1" in this test
stdout: inactive

stdin: What classification did "CC(=O)C1=C(O)C=C2Oc3c(C(=O)/C=C/c4cc(C(F)(F)F)cc(C(F)(F)F)c4)c(O)c(C)c(O)c3[C@]2(C)C1=O" end up with in this test?
stdout: inactive

stdin: Short answer needed: outcome of this test for "CN(C)CCCOc1ccccc1NC1=C(Cl)C(=O)C(Nc2ccccc2OCCCN(C)C)=C(Cl)C1=O" ?
stdout: inactive

More entries:
stdin: Could you check what this test reported for "O=[N+]([O-])c1ccc(Nc2ccccc2-c2ccccc2)c2nonc12" ?
stdout: inactive

stdin: For CO[C@H](C(=O)[C@@H](O)[C@@H](C)O)[C@@H]1Cc2cc3cc(O[C@H]4C[C@@H](O[C@H]5C[C@@H](O)[C@H](O)C(C)O5)[C@H](O)C(C)O4)c(C)c(O)c3c(O)c2C(=O)[C@H]1O[C@H]1C[C@@H](O[C@H]2C[C@@H](O[C@H]3C[C@@H](OC)[C@H](O)C(C)O3)[C@@H](O)C(C)O2)C(O)(O)C(C)O1 (stereo partly specified) , which call appears in the assay record?
stdout: active

stdin: Record request — test call for "COc1cc2c(/C=N\N=C(N)N)c(Cl)[nH]c2cc1C"
stdout: inactive

stdin: Could you kindly confirm the outcome this assay logged for "CCC[CH2][Sn]([CH2]CCC)([O]C(=O)c1c(F)cccc1F)[O]C(=O)c1c(F)cccc1F" ?
stdout: inactive

stdin: How did this test come out for C(=Nc1ccccc1)C1CCCC[N-]1.C(=Nc1ccccc1)C1CCCC[N-]1.[Cu+2].[O-][Cl+3]([O-])([O-])O (stereo unspecified) ?
stdout: inactive

stdin: For "C=C(CNC(=O)Nc1ccc(-c2ccccc2)cc1)c1ccc(C(=O)Nc2ccccc2N)cc1" , what call appears in the results of this test?
stdout: inactive

stdin: So what was the verdict on "Cc1ccccc1NC(=S)Nc1ccccn1" in this test?
stdout: inactive

stdin: Which outcome was assigned to "NS(=O)(=O)c1ccc(NC(=O)c2ccc(NC3=C(Cl)C(=O)N(Cc4ccccc4)C3=O)cc2)cc1" in this test?
stdout: inactive

stdin: Hey, what did the test say about "Cc1cc(C)nc(NC(N)=NCCc2ccccc2)n1" ?
stdout: inactive

stdin: So what was the verdict on "C=C1C(=O)O[C@H]2[C@H]1CC/C(CNC(=O)/C=C/c1ccc(Br)cc1)=C\CC[C@@]1(C)O[C@@H]21" in this test?
stdout: inactive

stdin: // return assay outcome for "CN1CCN(c2ccc(C(=O)Nc3n[nH]c4ccc(Cc5cc(F)cc(F)c5)cc34)c(NC3CCOCC3)c2)CC1"
stdout: inactive
